experiment: Cytotoxicity against Homo sapiens (human) PMN cells assessed as cell viability at 0.01 ug/ml by trypan blue dye exclusion test (reference value: 83.94 +/-5.05%); type: cell-based; conditions: read-out: Activity
observable: viability at 0.01 ug/ml (%)

{"compound": "C[C@H]1CC[C@@]2(OC1)O[C@H]1C[C@H]3[C@@H]4CC[C@@H]5C[C@@H](O[C@@H]6O[C@H](CO[C@@H]7O[C@@H](C)[C@H](O)[C@@H](O)[C@H]7O)[C@@H](O)[C@H](O)[C@H]6O[C@@H]6OC[C@H](O)[C@H](O)[C@H]6O)CC[C@]5(C)[C@H]4CC[C@]3(C)[C@H]1[C@@H]2C [SHATAVAROSIDE A]", "val": 72.3}

====

Recorded measurements of viability at 0.005 ug/ml, one per entry
assay: Cytotoxicity against Homo sapiens (human) PMN cells assessed as cell viability at 0.005 ug/ml by trypan blue dye exclusion test (reference value: 83.94 +/-5.05%); type: cell-based; conditions: read-out: Activity

{"molecule": "C[C@H]1CC[C@@]2(OC1)O[C@H]1C[C@H]3[C@@H]4CC[C@@H]5C[C@@H](O[C@@H]6O[C@H](CO[C@@H]7O[C@@H](C)[C@H](O)[C@@H](O)[C@H]7O)[C@@H](O[C@@H]7OC[C@@H](O)[C@H](O)[C@H]7O)[C@H](O)[C@H]6O[C@@H]6O[C@H](CO)[C@@H](O)[C@H](O)[C@H]6O)CC[C@]5(C)[C@H]4CC[C@]3(C)[C@H]1[C@@H]2C [SHATAVAROSIDE B]", "value units": "%", "viability at 0.005 ug/ml": 92.8}
{"molecule": "C[C@H]1CC[C@@]2(OC1)O[C@H]1C[C@H]3[C@@H]4CC[C@@H]5C[C@@H](O[C@@H]6O[C@H](CO[C@@H]7O[C@@H](C)[C@H](O)[C@@H](O)[C@H]7O)[C@@H](O)[C@H](O)[C@H]6O[C@@H]6OC[C@H](O)[C@H](O)[C@H]6O)CC[C@]5(C)[C@H]4CC[C@]3(C)[C@H]1[C@@H]2C [SHATAVAROSIDE A]", "value units": "%", "viability at 0.005 ug/ml": 100}

====

assay: Cytotoxicity against Homo sapiens (human) PMN cells assessed as cell viability at 0.0075 ug/ml by trypan blue dye exclusion test (reference value: 83.94 +/-5.05%); assay type: cell-based; settings: read-out: Activity

{"compound": "C[C@H]1CC[C@@]2(OC1)O[C@H]1C[C@H]3[C@@H]4CC[C@@H]5C[C@@H](O[C@@H]6O[C@H](CO[C@@H]7O[C@@H](C)[C@H](O)[C@@H](O)[C@H]7O)[C@@H](O)[C@H](O)[C@H]6O[C@@H]6OC[C@H](O)[C@H](O)[C@H]6O)CC[C@]5(C)[C@H]4CC[C@]3(C)[C@H]1[C@@H]2C [SHATAVAROSIDE A]", "viability at 0.0075 ug/ml / %": 100}
{"compound": "C[C@H]1CC[C@@]2(OC1)O[C@H]1C[C@H]3[C@@H]4CC[C@@H]5C[C@@H](O[C@@H]6O[C@H](CO[C@@H]7O[C@@H](C)[C@H](O)[C@@H](O)[C@H]7O)[C@@H](O[C@@H]7OC[C@@H](O)[C@H](O)[C@H]7O)[C@H](O)[C@H]6O[C@@H]6O[C@H](CO)[C@@H](O)[C@H](O)[C@H]6O)CC[C@]5(C)[C@H]4CC[C@]3(C)[C@H]1[C@@H]2C [SHATAVAROSIDE B]", "viability at 0.0075 ug/ml / %": 91}
